Assay: activity coefficient (dimensionless); of the first substance listed, at infinite dilution; xn = mol fraction of the nth substance listed
Conditions: 313.15 K; Liquid; Chromatography; x1 = 0
parameter-measured: activity coefficient
// no unit, no text: just the number

Worked set:
Cc1ccc(C)cc1 [1,4-dimethylbenzene] + C[n+]1ccn(CCO)c1.F[B-](F)(F)F : 34.7
CC(C)CC(C)(C)C [2,2,4-trimethylpentane] + C[n+]1ccn(CCO)c1.F[B-](F)(F)F : 523
Cc1cccc(C)c1 [1,3-dimethylbenzene] + C[n+]1ccn(CCO)c1.F[B-](F)(F)F : 36.3
CCc1ccccc1 [ethylbenzene] + C[n+]1ccn(CCO)c1.F[B-](F)(F)F : 40.6
Cc1ccccc1C [1,2-dimethylbenzene] + C[n+]1ccn(CCO)c1.F[B-](F)(F)F : 28.2
CCCCCCCCC [nonane] + C[n+]1ccn(CCO)c1.F[B-](F)(F)F : 564

Ask: Quote activity coefficient reported for C1CCCCC1 [cyclohexane] + C[n+]1ccn(CCO)c1.F[B-](F)(F)F please.
Reply: 418

Ask: Quote activity coefficient reported for C=Cc1ccccc1 [styrene] + C[n+]1ccn(CCO)c1.F[B-](F)(F)F please.
Reply: 15.1

Ask: Quote activity coefficient reported for c1ccccc1 [benzene] + C[n+]1ccn(CCO)c1.F[B-](F)(F)F please.
Reply: 9.11

Ask: Quote activity coefficient reported for CCCCCCCC [octane] + C[n+]1ccn(CCO)c1.F[B-](F)(F)F please.
Reply: 532

Ask: Quote activity coefficient reported for Cc1ccccc1 [toluene] + C[n+]1ccn(CCO)c1.F[B-](F)(F)F please.
Reply: 18

Ask: Quote activity coefficient reported for CCCCCCC [heptane] + C[n+]1ccn(CCO)c1.F[B-](F)(F)F please.
Reply: 850

Ask: Quote activity coefficient reported for C1=CCCCC1 [cyclohexene] + C[n+]1ccn(CCO)c1.F[B-](F)(F)F please.
Reply: 118

Ask: Quote activity coefficient reported for CC1CCCCC1 [methylcyclohexane] + C[n+]1ccn(CCO)c1.F[B-](F)(F)F please.
Reply: 373

Source of measurements: the NIST ThermoML archive (doi:10.1021/je9002724)
